Assay: Binding affinity to human ACC1 promoter1 G-quadraduplex DNA
quantity: pKd
Please express pKd as -log10 of the molar concentration.

Inquiry: Could you tell me which pKd is on file for C[n+]1ccc(-c2c3nc(c(-c4cc[n+](C)cc4)c4ccc([nH]4)c(-c4cc[n+](C)cc4)c4nc(c(-c5cc[n+](C)cc5)c5ccc2[nH]5)C=C4)C=C3)cc1 ?
Reply text: 7.15

* * *

Assay: Binding affinity to human ACC1 promoter2 G-quadraduplex DNA
quantity: Kd (nM)
State the answer as a number, implicitly in nM.

Inquiry: Could you tell me which Kd is on file for C[n+]1ccc(-c2c3nc(c(-c4cc[n+](C)cc4)c4ccc([nH]4)c(-c4cc[n+](C)cc4)c4nc(c(-c5cc[n+](C)cc5)c5ccc2[nH]5)C=C4)C=C3)cc1 ?
Reply text: 70
